System: WT E. coli
Assay: Minimal inhibitory concentration in wild-type E. coli
Assay type: cell-based, Escherichia coli
Conditions: wild-type E. coli, 37° C., 16 hours; read-out: MIC (μM) in WT E. coli
Experimental: General Procedure for Determination of Minimal Inhibitory Concentrations Overnight cultures (5 mL) of bacterial strains were grown in LB media or TSA media (for S. aureus) at 37° C. and with shaking at 220 rpm until saturation. The overnight culture was diluted serially 1:100 (50 μL in 5 mL sterile media) and then 1:100 (250 μL in 25 mL sterile media). […] The plate was incubated without shaking in a 37° C. for 16 hours and then read by visible light spectrophotometer (Molecular Devices) at 600 nm. […]
RESULT_TYPE: MIC (µM)
Number in µM, nothing else.

input: # assay system WT E. coli: give MIC of COC1C(OC(N)=O)C(O)C(Oc2ccc3c(O)c(NC(=O)C4CCCC(C5CCCCC5)C4)c(=O)oc3c2C)OC1(C)C (mixture of isomers) [Compound 63]
output: 300

input: # assay system WT E. coli: give MIC of CO[C@@H]1[C@@H](OC(N)=O)[C@@H](O)[C@H](Oc2ccc3c(O)c(NC(=O)c4ccc(O)c(-c5ccc(F)cc5)c4)c(=O)oc3c2C)OC1(C)C [Compound 79]
output: 26

input: # assay system WT E. coli: give MIC of CO[C@@H]1[C@@H](OC(N)=O)[C@@H](O)[C@H](Oc2ccc3c(O)c(NC(=O)c4ccc(O)c(-c5cccc6ccccc56)c4)c(=O)oc3c2C)OC1(C)C [Compound 93]
output: 75
